Test system: rodent lifetime carcinogenesis bioassay, tumor incidence TD50
protocol_text: carcinogenic potency in animals, long-term in vivo studies, CPDB compilation (AID 1745844)
applied_conditions: mouse; strain B6C3F1; females; in feed; site: ovary; lesion: granulosa-cell tumor + luteoma + tubular adenoma; dosed 78 weeks; study length 96 weeks

structure_string: O=[N+]([O-])c1ccc2c3c(cccc13)CC2
target: rodent lifetime carcinogenesis bioassay, tumor incidence TD50
TD50: 217 mg/kg/day

---

Tested on: rodent lifetime carcinogenesis bioassay, tumor incidence TD50
protocol_text: carcinogenic potency in animals, long-term in vivo studies, CPDB compilation (AID 1745844)
applied_conditions: mouse; strain B6C3F1; males; inhaled; site: lung; lesion: alveolar/bronchiolar adenoma; dosed 40 weeks; study length 104 weeks

structure_string: C=CC=C
TD50 [mg/kg/day]: 18.1

---

Tested on: rodent lifetime carcinogenesis bioassay, tumor incidence TD50
protocol_text: carcinogenic potency in animals, long-term in vivo studies, CPDB compilation (AID 1745844)
applied_conditions: rat; strain Fischer 344; males; in feed; site: lung; lesion: alveolar/bronchiolar adenoma + alveolar/bronchiolar carcinoma; dosed 74 weeks; study length 101 weeks
readout: TD50

structure_string: O=[N+]([O-])c1ccc2c3c(cccc13)CC2
target: rodent lifetime carcinogenesis bioassay, tumor incidence TD50
result: 29.9 mg/kg/day

---

Test system: rodent lifetime carcinogenesis bioassay, tumor incidence TD50
protocol_text: carcinogenic potency in animals, long-term in vivo studies, CPDB compilation (AID 1745844)
applied_conditions: mouse; strain B6C3F1; females; in feed; site: liver + urinary bladder; lesion: hepatocellular adenoma + hepatocellular carcinoma + carcinoma, NOS + neoplasm, NOS, malignant + squamous-cell carc; dosed 97 weeks; study length 97 weeks
readout: TD50 (mg/kg/day)

structure_string: COc1ccc(C)cc1N
readout: TD50
result: 69

---

Tested on: rodent lifetime carcinogenesis bioassay, tumor incidence TD50
protocol_text: carcinogenic potency in animals, long-term in vivo studies, CPDB compilation (AID 1745844)
applied_conditions: mouse; strain B6C3F1; males; in feed; site: liver; lesion: hepatocellular adenoma + hepatoblastoma + hepatocellular carcinoma; dosed 104 weeks; study length 105 weeks
Reported TD50 values for a set of compounds
readout: TD50

structure_string: Cc1ccc(OP(=O)(Oc2ccc(C)cc2)Oc2ccc(C)cc2)cc1
result: 968 mg/kg/day
--
structure_string: OCC(CO)(CBr)CBr
result: 2480 mg/kg/day

---

System: rodent lifetime carcinogenesis bioassay, tumor incidence TD50
protocol_text: carcinogenic potency in animals, long-term in vivo studies, CPDB compilation (AID 1745844)
applied_conditions: rat; strain Fischer 344; males; by gavage; site: pancreas + subcutaneous tissue; lesion: acinar-cell adenoma + fibrosarcoma + fibroma; dosed 106 weeks; study length 108 weeks

structure_string: Cc1ccc(N=C=O)cc1N=C=O
TD50: 27.3 mg/kg/day

---

Tested on: rodent lifetime carcinogenesis bioassay, tumor incidence TD50
protocol_text: carcinogenic potency in animals, long-term in vivo studies, CPDB compilation (AID 1745844)
applied_conditions: rat; strain Chester Beatty albino; females; in drinking water; site: esophagus; lesion: benign tumor; dosed 67 weeks; study length 67 weeks

structure_string: CN(N=O)c1ccccc1
TD50: 32 mg/kg/day

---

System: rodent lifetime carcinogenesis bioassay, tumor incidence TD50
protocol_text: carcinogenic potency in animals, long-term in vivo studies, CPDB compilation (AID 1745844)
applied_conditions: rat; strain Fischer 344; females; by gavage; site: multiple organs; lesion: mononuclear-cell leukemia; dosed 103 weeks; study length 104 weeks
readout: TD50

structure_string: c1ccoc1
readout: TD50
result: 5.84 mg/kg/day

---

Test system: rodent lifetime carcinogenesis bioassay, tumor incidence TD50
protocol_text: carcinogenic potency in animals, long-term in vivo studies, CPDB compilation (AID 1745844)
applied_conditions: mouse; strain B6AKF1; females; oral dosing; site: any site (literature study); lesion: several types; types named in the paper; dosed 68 weeks; study length 68 weeks

compound: ClC1(Cl)C2(Cl)C3(Cl)C4(Cl)C(Cl)(Cl)C5(Cl)C3(Cl)C1(Cl)C5(Cl)C24Cl (stereo unspecified)
target: rodent lifetime carcinogenesis bioassay, tumor incidence TD50
TD50 [mg/kg/day]: 1.26

---

System: rodent lifetime carcinogenesis bioassay, tumor incidence TD50
protocol_text: carcinogenic potency in animals, long-term in vivo studies, CPDB compilation (AID 1745844)
applied_conditions: rat; strain Fischer 344; females; by gavage; site: liver; lesion: neoplastic nodule; dosed 104 weeks; study length 105 weeks

compound: CCCC(Cl)CCCC(Cl)CCC(Cl)CCC(Cl)CCC(Cl)CCCC(Cl)CCC (stereo unspecified)
TD50: 1200 mg/kg/day

---

Tested on: rodent lifetime carcinogenesis bioassay, tumor incidence TD50
protocol_text: carcinogenic potency in animals, long-term in vivo studies, CPDB compilation (AID 1745844)
applied_conditions: rat; strain Sprague-Dawley; males; in drinking water; site: urinary bladder; lesion: carcinoma; dosed 104 weeks; study length 104 weeks
readout: TD50

structure_string: CCCCN(CCCCO)N=O
target: rodent lifetime carcinogenesis bioassay, tumor incidence TD50
readout: TD50
result: 3.3 mg/kg/day

---

Test system: rodent lifetime carcinogenesis bioassay, tumor incidence TD50
protocol_text: carcinogenic potency in animals, long-term in vivo studies, CPDB compilation (AID 1745844)
applied_conditions: mouse; strain B6C3F1; females; in feed; site: liver + lung + stomach; lesion: hepatocellular adenoma + hepatocellular carcinoma + alveolar/bronchiolar adenoma + alveolar/bronchiolar carcinoma + squamous-cel; dosed 103 weeks; study length 104 weeks

compound: O=P(OCC(Br)CBr)(OCC(Br)CBr)OCC(Br)CBr (stereo unspecified)
u: mg/kg/day
TD50: 80.1

---

Test system: rodent lifetime carcinogenesis bioassay, tumor incidence TD50
protocol_text: carcinogenic potency in animals, long-term in vivo studies, CPDB compilation (AID 1745844)
applied_conditions: rat; strain ACI; females; in feed; site: liver; lesion: neoplastic nodule; dosed 124 weeks; study length 124 weeks
readout: TD50

structure_string: Cc1nc(N)cc2[nH]c3ccccc3c12
result: 4.43 mg/kg/day

---

System: rodent lifetime carcinogenesis bioassay, tumor incidence TD50
protocol_text: carcinogenic potency in animals, long-term in vivo studies, CPDB compilation (AID 1745844)
applied_conditions: hamster; strain Syrian Golden; males; in drinking water; site: cecum; lesion: polypoid adenoma; dosed 91 weeks; study length 91 weeks
readout: TD50 (mg/kg/day)

structure_string: CN(C)N
readout: TD50
u: mg/kg/day
result: 372

---

System: rodent lifetime carcinogenesis bioassay, tumor incidence TD50
protocol_text: carcinogenic potency in animals, long-term in vivo studies, CPDB compilation (AID 1745844)
applied_conditions: mouse; strain Swiss albino; females; by gavage; site: gall bladder; lesion: adenocarcinoma; dosed 53 weeks; study length 127 weeks

structure_string: CC(C)C/C=N/N(C)C=O
TD50: 151 mg/kg/day

---

Tested on: rodent lifetime carcinogenesis bioassay, tumor incidence TD50
protocol_text: carcinogenic potency in animals, long-term in vivo studies, CPDB compilation (AID 1745844)
applied_conditions: rat; strain Sprague-Dawley; males; in feed; site: urinary tract; lesion: several types; types named in the paper; dosed 112 weeks; study length 112 weeks
readout: TD50

structure_string: S=C(SN1CCOCC1)N1CCOCC1
target: rodent lifetime carcinogenesis bioassay, tumor incidence TD50
readout: TD50
result: 85.5 mg/kg/day

---

System: rodent lifetime carcinogenesis bioassay, tumor incidence TD50
protocol_text: carcinogenic potency in animals, long-term in vivo studies, CPDB compilation (AID 1745844)
applied_conditions: rat; strain Fischer 344; females; by gavage; site: nasal cavity; lesion: carcinoma; dosed 30 weeks; study length 60 weeks

structure_string: CCCN(CCC)N=O
TD50: 0.186 mg/kg/day

---

Test system: rodent lifetime carcinogenesis bioassay, tumor incidence TD50
protocol_text: carcinogenic potency in animals, long-term in vivo studies, CPDB compilation (AID 1745844)
applied_conditions: rat; strain Fischer 344; females; in feed; site: multiple organs; lesion: osteosarcoma; dosed 104 weeks; study length 104 weeks

structure_string: Cc1ccccc1N
TD50: 423 mg/kg/day

---

Test system: rodent lifetime carcinogenesis bioassay, tumor incidence TD50
protocol_text: carcinogenic potency in animals, long-term in vivo studies, CPDB compilation (AID 1745844)
applied_conditions: rat; strain Wistar; females; in drinking water; site: liver; lesion: cholangiocarcinoma; dosed 104 weeks; study length 104 weeks

compound: O=C1OC(O)C(C(Cl)Cl)=C1Cl (stereo unspecified)
target: rodent lifetime carcinogenesis bioassay, tumor incidence TD50
TD50, mg/kg/day: 122

---

System: rodent lifetime carcinogenesis bioassay, tumor incidence TD50
protocol_text: carcinogenic potency in animals, long-term in vivo studies, CPDB compilation (AID 1745844)
applied_conditions: rat; strain Fischer 344; males; in drinking water; site: Zymbal's gland; lesion: adenoma + adenoma, bilateral + carcinoma + carcinoma, bilateral; dosed 88 weeks; study length 92 weeks
readout: TD50

structure_string: COc1cc(-c2ccc(N)c(OC)c2)ccc1N
result: 3.02 mg/kg/day

---

Tested on: rodent lifetime carcinogenesis bioassay, tumor incidence TD50
protocol_text: carcinogenic potency in animals, long-term in vivo studies, CPDB compilation (AID 1745844)
applied_conditions: rat; strain Fischer 344; females; in drinking water; site: liver; lesion: hepatocellular carcinoma; dosed 50 weeks; study length 73 weeks
readout: TD50

structure_string: O=NN1CCOCC1
target: rodent lifetime carcinogenesis bioassay, tumor incidence TD50
result: 0.0805 mg/kg/day
